- measurement.description: reversed-phase LC retention time (C18, 15 min MeOH gradient); higher = more hydrophobic / later elution
- test.settings: ionization mode: ESI-; ion species: [M-H]-
Structures can show the parent of a compound that is named as a salt.
Reported values of reversed-phase LC retention time for individual entries
readout.name: reversed-phase LC retention time (min)

CCC1=C(C)CN(C(=O)NCCc2ccc(S(=O)(=O)NC(=O)NC3CCC(C)CC3)cc2)C1=O (configuration not stated) [Glimepiride]; 14.3
CCCCCCCCCCCCOS(=O)(=O)O [Dodecyl sulfate]; 16.3
Cn1cc(C(=O)Nc2ccccc2-c2cc(F)c(F)c(F)c2)c(C(F)F)n1; 14.7
CCCOc1nn(C(=O)NS(=O)(=O)c2ccccc2C(=O)OC)c(=O)n1C; 9.86
O=C(NC1CCCCC1)NC1CCCCC1; 14.3
O=P(O)(O)C(F)(F)C(F)(F)C(F)(F)C(F)(F)C(F)(F)C(F)(F)F; 10.5
N#Cc1nn(-c2c(Cl)cc(C(F)(F)F)cc2Cl)c(N)c1S(=O)C(F)(F)F (configuration not stated); 15.6
CC(=O)OCC(=O)[C@@]1(O)CC[C@H]2[C@@H]3CCC4=CC(=O)CC[C@]4(C)[C@@]3(F)[C@@H](O)C[C@@]21C [Fludrocortisone-21-acetate]; 13.6
COc1c(C)c2c(c(O)c1C/C=C(\C)CCC(=O)O)C(=O)OC2; 11.3
CC(C)(C)Nc1nc(N)nc(O)n1 [2-Hydroxydesethylterbuthylazine]; 8.55
COCC(=O)N(c1c(C)cccc1C(=O)O)C(C)C(=O)O (configuration not stated); 5.43
O=c1cc(-c2ccc(O)cc2)oc2cc(O[C@@H]3O[C@H](CO)[C@@H](O)[C@H](O)[C@H]3O[C@@H]3OC[C@](O)(CO)[C@H]3O)cc(O)c12; 10.1

* * *

# collision cross section listing for each entry below
- measurement.description: collision cross section (TIMS, N2 drift gas) of the primary ion; higher = larger gas-phase ion size
- test.settings: ionization mode: ESI+; ion species: [M+H]+
readout.name: collision cross section (Å²)

CCCCOC(=O)CCCCCCCCC(=O)OCCCC [Dibutyl sebacate]; 185.48
CC(=O)CC(c1ccccc1)c1c(O)c2ccccc2oc1=O (centres undefined); 168.14
CC[C@H](C)[C@H]1O[C@]2(C=C[C@@H]1C)C[C@@H]1C[C@@H](C/C=C(\C)[C@@H](O[C@H]3C[C@H](OC)[C@@H](O[C@H]4C[C@H](OC)[C@@H](NC)[C@H](C)O4)[C@H](C)O3)[C@@H](C)/C=C/C=C3\CO[C@@H]4[C@H](O)C(C)=C[C@@H](C(=O)O1)[C@]34O)O2; 283.49
COCC(=O)N(c1c(C)cccc1C)C(C)C(=O)OC (centres undefined) [Metalaxyl]; 160.45

* * *

Each item that follows carries a reported collision cross section.
- measurement.description: collision cross section (TIMS, N2 drift gas) of the primary ion; higher = larger gas-phase ion size
- test.settings: ionization mode: ESI+; ion species: [M+H]+
readout.name: collision cross section (Å²)

CCNc1nc(NC(C)C)nc(SC)n1 [Ametryne]; 155.28
c1ccc2[nH]cnc2c1 [Benzimidazole]; 119.54
CN(C)C(=O)Nc1ccc(Cl)c(Cl)c1 [1-(3,4-Dichlorophenyl)-3,3-dimethylurea]; 149.81
C[C@]12CCC(=O)C=C1CC[C@@H]1[C@@H]2[C@@H](O)C[C@]2(C)C(=O)CC[C@@H]12 [4-Androsten-11beta-ol-3,17-dione]; 174.44
CCCN(CCC)CCc1cccc2c1CC(=O)N2 [Ropinirole]; 163.51

Origin of measurements: the supplement of paper PMC12613149
